Recorded below: Ki, system human dopamine D3 receptors (Homo sapiens, UniProt P35462).
Number in nM, nothing else.

Field: example entries. Status: answers known.
[
  {
    "COMPOUND": "CCCN1CC[C@@H](c2ccc(NS(=O)(=O)c3ccc(N4CCCC4=O)cc3)cc2)C1",
    "EXPERIMENTAL ENDPOINT": "Ki",
    "READOUT VALUE": 35.1
  },
  {
    "COMPOUND": "CCCN1CC[C@@H](c2ccc(NS(=O)(=O)c3ccc(C(C)C)cc3)cc2)C1.Cl [Example 1, hydrochloride]",
    "EXPERIMENTAL ENDPOINT": "Ki",
    "READOUT VALUE": 0.09
  },
  {
    "COMPOUND": "CCCN1CC(c2ccc(NS(=O)(=O)c3ccc([C@@H](C)CF)cc3)cc2)C1",
    "EXPERIMENTAL ENDPOINT": "Ki",
    "READOUT VALUE": 6.41
  },
  {
    "COMPOUND": "CCCN1CCC(c2ccc(NS(=O)(=O)c3ccc(C(C)C)cc3)cc2F)C1.Cl (centres unmarked) [Example 130, hydrochloride]",
    "EXPERIMENTAL ENDPOINT": "Ki",
    "READOUT VALUE": 0.52
  },
  {
    "COMPOUND": "CCCN1CC[C@@H](c2ccc(NS(=O)(=O)c3ccc([C@@H](C)CF)cc3)cc2)C1",
    "EXPERIMENTAL ENDPOINT": "Ki",
    "READOUT VALUE": 0.48
  },
  {
    "COMPOUND": "C=CCN1CC[C@@H](c2ccc(NS(=O)(=O)c3ccc([C@@H](C)CF)cc3)cc2)C1",
    "EXPERIMENTAL ENDPOINT": "Ki",
    "READOUT VALUE": 0.49
  },
  {
    "COMPOUND": "CCCN1CC[C@@H](c2ccc(NS(=O)(=O)c3ccc(-c4csnn4)cc3)cc2)C1",
    "EXPERIMENTAL ENDPOINT": "Ki",
    "READOUT VALUE": 6.79
  }
]

Moving on to the next compound.
Query :: I'm curious: which Ki was measured for CCCN1CC[C@@H](c2ccc(NS(=O)(=O)c3ccc(OCc4ccccc4)cc3)cc2)C1 tested on human dopamine D3 receptors (Homo sapiens, UniProt P35462)?
Result :: 3.7

Ref: patent US8470810B2
